compounds and their reported IC50
# Tested on: HCT116 isogenic IDH1-R132C mutant cells
# methodDescription: Cellular 2-HG assay using HCT116 mutant IDH1 cells (R132C), RapidFire mass spectrometry
# Assay type: cell-based
# runConditions: Homo sapiens, HCT-116; cellular 2-HG level, HCT116 IDH1-R132C cells, 24 hours; read-out: HCT116 IDH1 R132C IC50 (Range)

These solved cases illustrate the format of a correct answer.
compound="C[C@H](Nc1nccc(-c2cncn2CC2CC2)n1)c1cc2cc(Cl)ccc2[nH]c1=O [Compound I-61]" experimentalresult="100 to 1000 nM"
compound="CC(C)[C@H]1COC(=O)N1c1ccnc(N[C@@H](C)c2cc3cc(Cl)ccc3[nH]c2=O)n1 [Compound I-42]" experimentalresult="< 100 nM"
compound="CNC(=O)c1ccnc(N[C@@H](C)c2cc3cc(Cl)ccc3[nH]c2=O)n1 [Compound I-115]" experimentalresult="100 to 1000 nM"
compound="C[C@H](Nc1nccc(-c2cncn2Cc2ccccc2)n1)c1cc2cc(Cl)ccc2[nH]c1=O [Compound I-68]" experimentalresult="100 to 1000 nM"

-- ask Give recorded IC50 with HCT116 isogenic IDH1-R132C mutant cells for the following compound: C[C@H](Nc1ncc(C#N)c(N)n1)c1cc2cc(Cl)ccc2[nH]c1=O [Compound I-37]
-- reply 1000 to 10000 nM

-- ask Give recorded IC50 with HCT116 isogenic IDH1-R132C mutant cells for the following compound: COC(=O)c1ccnc(N[C@@H](C)c2cc3cc(Cl)ccc3[nH]c2=O)n1 [Compound I-129]
-- reply 1000 to 10000 nM

-- ask Give recorded IC50 with HCT116 isogenic IDH1-R132C mutant cells for the following compound: C[C@H](Nc1nccc(NC(=O)C2CC2)n1)c1cc2cc(Cl)ccc2[nH]c1=O [Compound I-29]
-- reply 100 to 1000 nM

-- ask Give recorded IC50 with HCT116 isogenic IDH1-R132C mutant cells for the following compound: C[C@H](Nc1nccc(N2CCNC2=O)n1)c1cc2cc(Cl)ccc2[nH]c1=O [Compound I-123]
-- reply 100 to 1000 nM

-- ask Give recorded IC50 with HCT116 isogenic IDH1-R132C mutant cells for the following compound: COC(=O)Nc1ccnc(N[C@@H](C)c2cc3cc(Cl)c(OCc4ccccn4)cc3[nH]c2=O)n1 [Compound I-154]
-- reply < 100 nM

-- ask Give recorded IC50 with HCT116 isogenic IDH1-R132C mutant cells for the following compound: C[C@H](Nc1nccc(-c2ccccc2)n1)c1cc2cc(Cl)ccc2[nH]c1=O [Compound I-101]
-- reply 100 to 1000 nM

-- ask Give recorded IC50 with HCT116 isogenic IDH1-R132C mutant cells for the following compound: CC(C)OC(=O)Nc1ccnc(N[C@@H](C)c2cc3cc(Cl)ccc3[nH]c2=O)n1 [Compound I-23]
-- reply 100 to 1000 nM

-- ask Give recorded IC50 with HCT116 isogenic IDH1-R132C mutant cells for the following compound: C[C@H](Nc1nccc([S@+](C)[O-])n1)c1cc2cc(Cl)ccc2[nH]c1=O [Compound I-113]
-- reply 100 to 1000 nM

-- ask Give recorded IC50 with HCT116 isogenic IDH1-R132C mutant cells for the following compound: C[C@H](Nc1nccc(-c2cnnn2C)n1)c1cc2cc(Cl)ccc2[nH]c1=O [Compound I-66]
-- reply 100 to 1000 nM

-- ask Give recorded IC50 with HCT116 isogenic IDH1-R132C mutant cells for the following compound: COc1cc2[nH]c(=O)c(C(C)Nc3nccc(N4CCOC4=O)n3)cc2cc1Cl (centres unmarked) [Compound I-146]
-- reply 100 to 1000 nM
